# ASSAY PROCEDURE: in vivo
# SETUP CONDITIONS: male, Sprague Dawley, rat, iv, 125 mg/kg
RESULT TYPE: AUC0-t (µg·h/mL)
Give bare numbers, in µg·h/mL.

[ask] Please report the recorded AUC0-t for COC1=C(OC)C(=O)C(C/C=C(\C)CC/C=C(\C)CC/C=C(\C)CC/C=C(\C)CC/C=C(\C)CC/C=C(\C)CC/C=C(\C)CC/C=C(\C)CC/C=C(\C)CCC=C(C)C)=C(C)C1=O [CoQ10, Coenzyme Q10] .
[reply] 6870

----------
# ASSAY PROCEDURE: in vivo
# SETUP CONDITIONS: female, Sprague Dawley, rat, iv, 125 mg/kg
RESULT TYPE: AUC0-t (µg·h/mL)
Answers are plain numbers, in µg·h/mL.

[ask] Entry under review: `COC1=C(OC)C(=O)C(C/C=C(\C)CC/C=C(\C)CC/C=C(\C)CC/C=C(\C)CC/C=C(\C)CC/C=C(\C)CC/C=C(\C)CC/C=C(\C)CC/C=C(\C)CCC=C(C)C)=C(C)C1=O` . Reported AUC0-t?
[reply] 5110
